test system: biotinyl-Leu-oxazolone; test: self-aminoacylation, catalytic enhancement (BLO) (fold over background); higher = more active; k-Seq, kA / k0A0; sequences stand for … in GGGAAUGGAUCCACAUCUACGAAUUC…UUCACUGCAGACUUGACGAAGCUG
Variants at the floor of the assay were thinned out.
Outcome: y for self-aminoacylation of at least 3; n for anything lower.

[
  {
    "entry_sequence": "AUUCCCCUAGGUCAGCGGGUG [Fam2.2 aminoacylation ribozyme variant]",
    "class_name": "y"
  },
  {
    "entry_sequence": "AUUACCCUGGUCACCGGGUGA [Fam2.1 aminoacylation ribozyme variant]",
    "class_name": "y"
  },
  {
    "entry_sequence": "AUUCAUCGAGGUCAUCGGGUG [Fam2.2 aminoacylation ribozyme variant]",
    "class_name": "y"
  },
  {
    "entry_sequence": "UUACUUCAAACAAUCGGUAUG [Fam1A.1 aminoacylation ribozyme variant]",
    "class_name": "n"
  },
  {
    "entry_sequence": "AAGUUUAUUAAUAGUCGCAAG [Fam3.1 aminoacylation ribozyme variant]",
    "class_name": "n"
  },
  {
    "entry_sequence": "AUUACCCUGGUCAUAUAGUGA [Fam2.1 aminoacylation ribozyme variant]",
    "class_name": "y"
  },
  {
    "entry_sequence": "AUUACCCUGGUGAGCGAGUGA [Fam2.1 aminoacylation ribozyme variant]",
    "class_name": "y"
  },
  {
    "entry_sequence": "AUCACCCUGGUCAUCGAGUAA [Fam2.1 aminoacylation ribozyme variant]",
    "class_name": "y"
  },
  {
    "entry_sequence": "CUACUUCAAUCACUCGGUCUG [Fam1A.1 aminoacylation ribozyme variant]",
    "class_name": "n"
  },
  {
    "entry_sequence": "AGUACCCUGGUGAUCGAGUGA [Fam2.1 aminoacylation ribozyme variant]",
    "class_name": "y"
  },
  {
    "entry_sequence": "AUUACCCUGGUCCUGGAGUGA [Fam2.1 aminoacylation ribozyme variant]",
    "class_name": "n"
  },
  {
    "entry_sequence": "AUUUCCCUGGACAUCGAGUGA [Fam2.1 aminoacylation ribozyme variant]",
    "class_name": "y"
  },
  {
    "entry_sequence": "AAUACCGUGGUCAUCGAGUGA [Fam2.1 aminoacylation ribozyme variant]",
    "class_name": "y"
  },
  {
    "entry_sequence": "AAGUUUGAUAAUAGUCCCAAG [Fam3.1 aminoacylation ribozyme variant]",
    "class_name": "n"
  },
  {
    "entry_sequence": "AUUCAUCUAGGUCAUCCGGUG [Fam2.2 aminoacylation ribozyme variant]",
    "class_name": "y"
  },
  {
    "entry_sequence": "AUUGCCCUGGCCAUCGAGUGA [Fam2.1 aminoacylation ribozyme variant]",
    "class_name": "y"
  },
  {
    "entry_sequence": "GUUCAUCUAGGUCAUCGGGUG [Fam2.2 aminoacylation ribozyme variant]",
    "class_name": "y"
  },
  {
    "entry_sequence": "AUUACCCUGAUCGUCGAGUGA [Fam2.1 aminoacylation ribozyme variant]",
    "class_name": "n"
  }
]

----------
tested on: biotinyl-Phe-oxazolone; experiment: self-aminoacylation, catalytic enhancement (BFO) (fold over background); higher = more active; k-Seq, kA / k0A0; sequences stand for … in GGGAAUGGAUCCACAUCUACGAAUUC…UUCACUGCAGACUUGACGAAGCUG
Variants at the floor of the assay were thinned out.

[
  {
    "entry_sequence": "ACUCACCUAGGCCAUCGGGUG [Fam2.2 aminoacylation ribozyme variant]",
    "self-aminoacylation": 34.2
  },
  {
    "entry_sequence": "GUUACCCUCGUCAUCGAGUGA [Fam2.1 aminoacylation ribozyme variant]",
    "self-aminoacylation": 11
  },
  {
    "entry_sequence": "UUUCACCUAGGUCAUCGGGUU [Fam2.2 aminoacylation ribozyme variant]",
    "self-aminoacylation": 44.3
  },
  {
    "entry_sequence": "AUUACCCUCGUCUUCGAGUGA [Fam2.1 aminoacylation ribozyme variant]",
    "self-aminoacylation": 29.4
  },
  {
    "entry_sequence": "AUUCUCCUGGGUCAUCGGGUG [Fam2.2 aminoacylation ribozyme variant]",
    "self-aminoacylation": 73.6
  },
  {
    "entry_sequence": "AUUACCCUGGUCGUCGUGUGA [Fam2.1 aminoacylation ribozyme variant]",
    "self-aminoacylation": 9.58
  },
  {
    "entry_sequence": "AUCCACGUAGGUCAUCGGGUG [Fam2.2 aminoacylation ribozyme variant]",
    "self-aminoacylation": 37.4
  },
  {
    "entry_sequence": "AUUACCGUGGACAUCGAGUGA [Fam2.1 aminoacylation ribozyme variant]",
    "self-aminoacylation": 3.62
  },
  {
    "entry_sequence": "AAGCGUGCUAAUAGUCGCAAG [Fam3.1 aminoacylation ribozyme variant]",
    "self-aminoacylation": 4.08
  },
  {
    "entry_sequence": "AAGUUGGCGAAUAGUCGCAAG [Fam3.1 aminoacylation ribozyme variant]",
    "self-aminoacylation": 2.86
  },
  {
    "entry_sequence": "GUUCACCUAGGCCAUCGGGUG [Fam2.2 aminoacylation ribozyme variant]",
    "self-aminoacylation": 25.4
  },
  {
    "entry_sequence": "AUUCACCUAGGUCUUCGGGUU [Fam2.2 aminoacylation ribozyme variant]",
    "self-aminoacylation": 13.8
  },
  {
    "entry_sequence": "AUUUACCUAGGUCAUCGGAUG [Fam2.2 aminoacylation ribozyme variant]",
    "self-aminoacylation": 0.723
  },
  {
    "entry_sequence": "AUUACCCUGGUCAUCGGGUGC [Fam2.1 aminoacylation ribozyme variant]",
    "self-aminoacylation": 211
  },
  {
    "entry_sequence": "AUUCACCUAGGUCAUCGGGAU [Fam2.2 aminoacylation ribozyme variant]",
    "self-aminoacylation": 18.7
  },
  {
    "entry_sequence": "CUACUUCAAACAAUCGGUUUU [Fam1A.1 aminoacylation ribozyme variant]",
    "self-aminoacylation": 2.35
  },
  {
    "entry_sequence": "CUACUUGAAACAAUCGGUCUG [Fam1A.1 aminoacylation ribozyme variant]",
    "self-aminoacylation": 0.652
  },
  {
    "entry_sequence": "CCGCACUUCAAGCAAUCGGUU [Fam1B.1 aminoacylation ribozyme variant]",
    "self-aminoacylation": 13.9
  },
  {
    "entry_sequence": "CUACGUCGAACAAUCGGUCUG [Fam1A.1 aminoacylation ribozyme variant]",
    "self-aminoacylation": 4.04
  },
  {
    "entry_sequence": "GUUACCCUAGUCAUCGAGUGA [Fam2.1 aminoacylation ribozyme variant]",
    "self-aminoacylation": 28.1
  },
  {
    "entry_sequence": "CCACACUUUAAGCGAUCGGUC [Fam1B.1 aminoacylation ribozyme variant]",
    "self-aminoacylation": 0.891
  },
  {
    "entry_sequence": "AAGUUUGGUAAUAGUCGCAAC [Fam3.1 aminoacylation ribozyme variant]",
    "self-aminoacylation": 2.86
  },
  {
    "entry_sequence": "UCACACUUCAAGCAAUCAGUC [Fam1B.1 aminoacylation ribozyme variant]",
    "self-aminoacylation": 17.9
  },
  {
    "entry_sequence": "AUUACCCGCGUCAUCGAGUGA [Fam2.1 aminoacylation ribozyme variant]",
    "self-aminoacylation": 24.9
  },
  {
    "entry_sequence": "CCCCACUUCAAGCAAUCGGGC [Fam1B.1 aminoacylation ribozyme variant]",
    "self-aminoacylation": 4.2
  },
  {
    "entry_sequence": "CUUCACCAAGGUCAUCGGGUG [Fam2.2 aminoacylation ribozyme variant]",
    "self-aminoacylation": 59.9
  },
  {
    "entry_sequence": "AUUCACCUGGGUCAUCGGGUA [Fam2.2 aminoacylation ribozyme variant]",
    "self-aminoacylation": 47.8
  },
  {
    "entry_sequence": "CAACUUCAAACAAUCGUUCUG [Fam1A.1 aminoacylation ribozyme variant]",
    "self-aminoacylation": 1.83
  },
  {
    "entry_sequence": "UUACUUCAAACAAUCGCUCUG [Fam1A.1 aminoacylation ribozyme variant]",
    "self-aminoacylation": 2.29
  },
  {
    "entry_sequence": "CCACACUUCCAGCAGUCGGUC [Fam1B.1 aminoacylation ribozyme variant]",
    "self-aminoacylation": 0.659
  },
  {
    "entry_sequence": "ACACUUCAAACAAUCGGUCUG [Fam1A.1 aminoacylation ribozyme variant]",
    "self-aminoacylation": 75.9
  },
  {
    "entry_sequence": "CCACACUUCAUGCAACCGGUC [Fam1B.1 aminoacylation ribozyme variant]",
    "self-aminoacylation": 0.916
  },
  {
    "entry_sequence": "CUGCCUCAAACAAUCGGUCUG [Fam1A.1 aminoacylation ribozyme variant]",
    "self-aminoacylation": 34.5
  },
  {
    "entry_sequence": "AAGUUUGCUACUAGUCCCAAG [Fam3.1 aminoacylation ribozyme variant]",
    "self-aminoacylation": 0.773
  },
  {
    "entry_sequence": "AAGUUCGCUAGUAGUCGCAAG [Fam3.1 aminoacylation ribozyme variant]",
    "self-aminoacylation": 4.51
  }
]
